Origin of measurements: PubChem BioAssay (NCI)

test system: SN12K1 renal; test: NCI tumour cell line growth inhibition, 48 h
The following compounds are shown together with reported TGI values.

{"columns": ["compound", "TGI"],
 "data": [
  ["CCOC(=O)c1ccc(N[C@@H]2c3cc4c(cc3C(c3cc(OC)c(O)c(OC)c3)[C@H]3C(=O)OCC32)OCO4)cc1 (some centres undefined)", "1.44 µM"],
  ["Cc1c2cnccc2c(C)c2c1c1ccccc1n2CCCCCCCl", "> 50 µM"],
  ["CSc1nc2c(ncn2C2OC(CO)C(O)C(O)C2O)c(=O)n1C (centres undefined)", "> 100 µM"],
  ["CC1=CC2=C(C=O)C(=O)[C@](C)(O)[C@@H](O)C2=CO1", "> 100 µM"]
]}
